study-target: Calpain-1 catalytic subunit (Homo sapiens)
Sequence (P07384 whole entry): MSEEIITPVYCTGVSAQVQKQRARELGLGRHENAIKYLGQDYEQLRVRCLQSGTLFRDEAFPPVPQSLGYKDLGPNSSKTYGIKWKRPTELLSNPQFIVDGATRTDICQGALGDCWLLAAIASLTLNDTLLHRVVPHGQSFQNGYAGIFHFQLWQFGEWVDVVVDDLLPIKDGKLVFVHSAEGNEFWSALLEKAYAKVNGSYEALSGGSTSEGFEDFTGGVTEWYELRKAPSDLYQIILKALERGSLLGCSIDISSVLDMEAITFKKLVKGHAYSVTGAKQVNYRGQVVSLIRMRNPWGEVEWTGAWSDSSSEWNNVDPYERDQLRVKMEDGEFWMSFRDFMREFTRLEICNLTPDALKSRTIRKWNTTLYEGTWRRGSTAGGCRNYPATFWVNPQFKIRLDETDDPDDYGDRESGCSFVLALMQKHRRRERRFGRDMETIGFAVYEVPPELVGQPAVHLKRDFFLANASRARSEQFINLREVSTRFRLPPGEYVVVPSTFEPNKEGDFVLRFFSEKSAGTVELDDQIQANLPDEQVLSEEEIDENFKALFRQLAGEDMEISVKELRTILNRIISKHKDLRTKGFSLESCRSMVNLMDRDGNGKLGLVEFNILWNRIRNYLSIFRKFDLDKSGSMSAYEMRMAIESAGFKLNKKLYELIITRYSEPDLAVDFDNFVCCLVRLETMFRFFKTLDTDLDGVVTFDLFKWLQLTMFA
experimental-details: Inhibitory activity of compound against recombinant human Calpain 1
readout-kind: pIC50
Field pIC50 (float): negative decimal logarithm of the concentration in molar.

CCNC(=O)C(=O)C(CC)NC(=O)[C@H](CC(C)C)NC(=O)OCc1ccccc1 (stereo not given in full): 6.62

[in] # get_value(readout= pIC50, system= Calpain-1 catalytic subunit (Homo sapiens)) for CCNC(=O)C(CC(C)C)NC(=O)[C@@H](CC(=O)C1c2ccccc2Oc2ccccc21)CC(C)C (stereo not given in full)
[out] 6.89

[in] # get_value(readout= pIC50, system= Calpain-1 catalytic subunit (Homo sapiens)) for "CC(C)C[C@H](CC(=O)CCCCc1ccccc1)C(=O)N[C@H](C=O)CC(C)C"
[out] 6.86

[in] # get_value(readout= pIC50, system= Calpain-1 catalytic subunit (Homo sapiens)) for "CC(C)C[C@H](CC(=O)C(c1ccccc1)c1ccccc1)C(=O)N[C@H](C=O)CC(C)C"
[out] 7.30

[in] # get_value(readout= pIC50, system= Calpain-1 catalytic subunit (Homo sapiens)) for "CC(C)C[C@H](CC(=O)C1c2ccccc2Oc2ccccc21)C(=O)N[C@H](C=O)CC(C)C"
[out] 7.60
